tested on: Fibroblast; assay: Multiplex assay against human fibroblast; format: toxicity, cell-based; conditions: 24 h, 10 µM, compound concentration 10 uM, replicate 1
Total Cell Count strictly less than 200 = Yes. Otherwise No.

{"Compound": "CC(C)(O)CNc1ncc(-c2ccnc(Nc3ccnc(Cl)c3)n2)c(CC2CC2)n1", "Assayed Target": "Fibroblast", "Cat": "Yes"}
{"Compound": "CCN(CC)CCCCNc1ncc2cc(-c3cc(OC)cc(OC)c3)c(NC(=O)NC(C)(C)C)nc2n1", "Assayed Target": "Fibroblast", "Cat": "No"}
{"Compound": "Cc1nc(-c2ccc(-c3ccc(C(=O)N4CCc5cc6c(cc54)C4(CCN(C)CC4)CO6)cc3)c(C)c2)no1", "Assayed Target": "Fibroblast", "Cat": "Yes"}
{"Compound": "Cc1csc2c(N[C@@H](C)CN3CCN(S(=O)(=O)c4ccc(Cl)c(Cl)c4)CC3)ncnc12", "Assayed Target": "Fibroblast", "Cat": "Yes"}
{"Compound": "CN1CCCC(n2nc(Cc3ccc(Cl)cc3)c3ccccc3c2=O)CC1.Cl (stereo unspecified) [AZELASTINE HYDROCHLORIDE]", "Assayed Target": "Fibroblast", "Cat": "Yes"}

Say whether its Total Cell Count is strictly beneath 200. Entry: CN1CCC[C@@H]1CCO[C@](C)(c1ccccc1)c1ccc(Cl)cc1.O=C(O)/C=C/C(=O)O [CLEMASTINE FUMARATE] Yes

# iterate: CC(C)NCC(O)COc1ccc(CCOCC2CC2)cc1.Cl (stereo unspecified) [BETAXOLOL HYDROCHLORIDE] Yes

----------
system: U2OS; experiment: Multiplex assay against U2OS; assay type: toxicity, cell-based; conditions: human, 48 h, 10 µM, compound concentration 10 uM, replicate 2
Measurement Kind: Population Healthy Nuclei (%)
Numbers only, in %.

Observe how each entry below is paired with its result.
{"Molecule": "Cc1csc2c(N[C@@H](C)CN3CCN(S(=O)(=O)c4ccc(Cl)c(Cl)c4)CC3)ncnc12", "Population Healthy Nuclei (%)": 50}
{"Molecule": "CNc1nc(NCc2ccc(NS(C)(=O)=O)cc2Cl)cc(-c2ccccn2)n1", "Population Healthy Nuclei (%)": 51}
{"Molecule": "Cc1cc(C)cc(-c2cnc3cc(Cl)c(-c4cccc(O)c4)cc3c2OCCCN)c1", "Population Healthy Nuclei (%)": 12}

Could you report Population Healthy Nuclei (%) for every entry in the following list?
1. CCOCCn1cc(C(=O)Nc2ccc(-n3nc(-c4cccnc4)cc3C(F)(F)F)cn2)ccc1=O
2. CN1CCC[C@@H]1CCO[C@](C)(c1ccccc1)c1ccc(Cl)cc1.O=C(O)/C=C/C(=O)O [CLEMASTINE FUMARATE]
3. CN1CCCC(n2nc(Cc3ccc(Cl)cc3)c3ccccc3c2=O)CC1.Cl (centres undefined) [AZELASTINE HYDROCHLORIDE]
4. COc1cccc([C@@H](C)NCCCc2ccccc2Cl)c1.Cl [TECALCET HYDROCHLORIDE]
5. CCn1c(=O)c(-c2ccc(Cl)cc2Cl)cc2cnc(Nc3ccc(N4CCNCC4)c(F)c3)nc21
6. OC1(c2ccc(Cl)cc2)CCN(Cc2c[nH]c3ccccc23)CC1

[73, 46, 48, 60, 26, 12]

----------
Please respond with reported Population Normal (%) for every item in the list.
tested on: U2OS; assay: Multiplex assay against U2OS; type: toxicity, cell-based; conditions: human, 48 h, 1 µM, compound concentration 1 uM, replicate 2
Answers are plain numbers, in %.

{"Compound": "COc1ncc(-c2ccc3nccc(-c4ccnnc4)c3c2)cc1NS(=O)(=O)c1ccc(F)cc1F", "Population Normal (%)": 84}
{"Compound": "CN1CCCC(n2nc(Cc3ccc(Cl)cc3)c3ccccc3c2=O)CC1.Cl (stereo not given) [AZELASTINE HYDROCHLORIDE]", "Population Normal (%)": 92}
{"Compound": "CC(C)NCC(O)COc1ccc(CCOCC2CC2)cc1.Cl (stereo not given) [BETAXOLOL HYDROCHLORIDE]", "Population Normal (%)": 96}
{"Compound": "CN(C)CC#Cc1ccc(OCCCc2sc(N3CCc4cccc(C(=O)Nc5nc6ccccc6s5)c4C3)nc2C(=O)O)c(F)c1", "Population Normal (%)": 94}
{"Compound": "COc1cccc([C@@H](C)NCCCc2ccccc2Cl)c1.Cl [TECALCET HYDROCHLORIDE]", "Population Normal (%)": 92}

Please state Population Normal (%) for every compound in the list that follows.
1. C[C@@H](NCCCc1cccc(C(F)(F)F)c1)c1cccc2ccccc12.Cl [CINACALCET HYDROCHLORIDE]
2. CN(C)C(=O)/C(C#N)=C/c1ccc(-c2nc3cnc4[nH]ccc4c3n2C2CCCCC2)o1
3. Cc1nc(-c2ccc(-c3ccc(C(=O)N4CCc5cc6c(cc54)C4(CCN(C)CC4)CO6)cc3)c(C)c2)no1
4. C=CC(=O)Nc1cccc(C(=O)Nc2ccc(Nc3cc(-c4[nH]c(SC)nc4C)ccn3)cc2)c1

[93, 98, 90, 95]

Recorded Population Normal (%) for COc1cc(-n2cnc3cc(-c4ccc(Cl)cc4)sc3c2=O)ccc1OCCN1CCCC1 , please? 94

----------
tested on: HEK-293T; assay: Multiplex assay against HEK293T; assay type: toxicity, cell-based; details: human, 48 h, 10 µM, compound concentration 10 uM, replicate 1
Quick rule for you: Population Apoptotic (%) under 80% gets MET, anything else gets NOT MET.

Check out these entries, answers already filled in.
{"Compound String": "CN(C)CC#Cc1ccc(OCCCc2sc(N3CCc4cccc(C(=O)Nc5nc6ccccc6s5)c4C3)nc2C(=O)O)c(F)c1", "Cat": "MET"}
{"Compound String": "CCn1c(=O)c(-c2ccc(Cl)cc2Cl)cc2cnc(Nc3ccc(N4CCNCC4)c(F)c3)nc21", "Cat": "MET"}

Does the reported Population Apoptotic (%) of the following compound sit strictly below 80%? CN(C)C(=O)/C(C#N)=C/c1ccc(-c2nc3cnc4[nH]ccc4c3n2C2CCCCC2)o1 MET

----------
Would you mind telling me the reported Population Pyknosed Nuclei (%) of each entry?
test system: Fibroblast; assay: Multiplex assay against human fibroblast; assay type: toxicity, cell-based; details: 48 h, 10 µM, compound concentration 10 uM, replicate 2
Numbers only, in %.

{"Molecule": "CN1CCCC(n2nc(Cc3ccc(Cl)cc3)c3ccccc3c2=O)CC1.Cl (stereo unspecified) [AZELASTINE HYDROCHLORIDE]", "Result Units": "%", "Population Pyknosed Nuclei (%)": 3}
{"Molecule": "Cc1[nH]c(/C=C2\\C(=O)Nc3ccc(S(=O)(=O)N(C)c4cccc(Cl)c4)cc32)c(C)c1C(=O)N1CCN(C)CC1", "Result Units": "%", "Population Pyknosed Nuclei (%)": 6}
{"Molecule": "CN1CCN(CCOc2cc(OC3CCOCC3)c3c(Nc4c(Cl)ccc5c4OCO5)ncnc3c2)CC1 [SARACATINIB]", "Result Units": "%", "Population Pyknosed Nuclei (%)": 0}
{"Molecule": "Cn1cc(-c2[nH]c3cc(NC(=O)[C@H](N)C4CCCCC4)cc4c3c2C=NNC4=O)cn1", "Result Units": "%", "Population Pyknosed Nuclei (%)": 1}
{"Molecule": "CC[C@H](C)C(=O)O[C@H]1C[C@@H](C)C=C2C=C[C@H](C)[C@H](CC[C@@H]3C[C@@H](O)CC(=O)O3)[C@H]21 [LOVASTATIN]", "Result Units": "%", "Population Pyknosed Nuclei (%)": 10}

Answer for every listed entry: what is its Population Pyknosed Nuclei (%)? The entries follow.
1. CN1CCC[C@@H]1CCO[C@](C)(c1ccccc1)c1ccc(Cl)cc1.O=C(O)/C=C/C(=O)O [CLEMASTINE FUMARATE]
2. Cc1nc(-c2ccc(-c3ccc(C(=O)N4CCc5cc6c(cc54)C4(CCN(C)CC4)CO6)cc3)c(C)c2)no1 [SB-224289]
3. C=CC(=O)Nc1ccc2ncnc(Nc3ccc(OCc4cccc(F)c4)c(Cl)c3)c2c1.Cc1ccc(S(=O)(=O)O)cc1
4. CNCc1ccccc1-c1csc([C@H](C)Nc2nc(C)nc3cc(OC)c(OC)cc23)c1 [BAY-294]

[2, 36, 1, 7]

----------
test system: Fibroblast; test: Multiplex assay against human fibroblast; type: toxicity, cell-based; settings: 24 h, 10 µM, compound concentration 10 uM, replicate 2
# Population Membrane Permeable-Phenotype (%) >= 40% gives met, anything below gives not met

Example entries begin here.
{"Compound": "Cc1[nH]c(/C=C2\\C(=O)Nc3ccc(S(=O)(=O)N(C)c4cccc(Cl)c4)cc32)c(C)c1C(=O)N1CCN(C)CC1", "Cat": "met"}
{"Compound": "Cl.N#Cc1ccc2[nH]cc(CCCCN3CCN(c4ccc5oc(C(N)=O)cc5c4)CC3)c2c1 [VILAZODONE HYDROCHLORIDE]", "Cat": "not met"}
{"Compound": "Cc1c(-c2ccc(O)cc2)n(Cc2ccc(OCCN3CCCCCC3)cc2)c2ccc(O)cc12 [BAZEDOXIFENE]", "Cat": "met"}
{"Compound": "Cc1nc(Nc2n[nH]c3c2CN(C(=O)N[C@H](CN(C)C)c2ccccc2)C3(C)C)c2sccc2n1 [PF-03758309]", "Cat": "not met"}
{"Compound": "CN1C(=O)c2sccc2N(C)c2nc(Nc3ccc(S(N)(=O)=O)cc3)ncc21", "Cat": "not met"}

Decide: Population Membrane Permeable-Phenotype (%) of COc1cc2nccc(Oc3ccc(NC(=O)Nc4cc(C)on4)c(Cl)c3)c2cc1OC.O >= 40%? met

Quick one: CN(C)C(=O)N[C@H]1CC[C@H](CCN2CCN(c3cccc(Cl)c3Cl)CC2)CC1.Cl [CARIPRAZINE HYDROCHLORIDE] met
